Target: Human NLRP3 (Homo sapiens (Human))
Sequence (Q96P20 whole entry): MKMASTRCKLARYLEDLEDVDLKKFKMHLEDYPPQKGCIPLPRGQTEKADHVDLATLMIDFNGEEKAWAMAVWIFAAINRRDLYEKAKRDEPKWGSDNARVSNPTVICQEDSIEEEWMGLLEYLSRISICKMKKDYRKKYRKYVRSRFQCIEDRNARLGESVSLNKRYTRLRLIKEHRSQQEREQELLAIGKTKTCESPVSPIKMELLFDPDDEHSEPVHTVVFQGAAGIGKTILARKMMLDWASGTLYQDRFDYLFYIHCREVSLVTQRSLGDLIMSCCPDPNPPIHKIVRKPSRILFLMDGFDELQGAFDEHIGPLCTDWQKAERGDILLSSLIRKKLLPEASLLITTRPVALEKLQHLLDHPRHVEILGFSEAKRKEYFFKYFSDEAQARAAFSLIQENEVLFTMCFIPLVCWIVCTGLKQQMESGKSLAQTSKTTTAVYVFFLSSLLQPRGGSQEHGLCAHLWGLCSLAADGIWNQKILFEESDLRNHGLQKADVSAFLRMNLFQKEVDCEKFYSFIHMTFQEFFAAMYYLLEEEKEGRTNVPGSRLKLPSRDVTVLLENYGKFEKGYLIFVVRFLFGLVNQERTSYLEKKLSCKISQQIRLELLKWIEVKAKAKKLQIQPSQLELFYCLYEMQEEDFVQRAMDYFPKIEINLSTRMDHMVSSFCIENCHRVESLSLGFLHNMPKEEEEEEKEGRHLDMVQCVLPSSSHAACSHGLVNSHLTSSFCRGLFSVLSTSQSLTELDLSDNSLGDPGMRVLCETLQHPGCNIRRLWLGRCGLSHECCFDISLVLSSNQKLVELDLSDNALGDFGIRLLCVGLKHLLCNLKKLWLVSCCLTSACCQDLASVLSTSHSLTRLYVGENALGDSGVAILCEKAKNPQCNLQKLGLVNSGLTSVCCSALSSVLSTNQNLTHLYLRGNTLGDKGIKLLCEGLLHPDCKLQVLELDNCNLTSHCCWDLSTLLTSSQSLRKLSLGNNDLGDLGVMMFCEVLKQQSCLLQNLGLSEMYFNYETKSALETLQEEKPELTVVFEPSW
Experimental Details: Human NLRP3 speck formation assay (Test A), nigericin triggered ASC-speck formation in ASC-GFP reporter monocytes
Observation Type: EC50 (µM)
Unit µM implied. Number only.

So what does the record say about EC50 for Oc1cc(Cl)cc(F)c1-c1nnc(N[C@@H]2CCCC[C@H]2O)c2cnccc12 ?
0.017

Ok, now CC(C)(O)CNc1nnc(-c2ccc(C(F)(F)F)cc2O)c2ccncc12
0.067

Also Oc1cc(Cl)ccc1-c1nnc(N[C@@H]2CCCC[C@H]2O)c2cnccc12 , if possible.
0.011

Next up: Oc1cc(F)ccc1-c1nnc(N[C@@H]2CCCC[C@H]2O)c2ccncc12
1.14

Next record, please: Oc1cc(C(F)(F)F)ccc1-c1nnc(N[C@H]2CC[C@@H](O)C2)c2cnccc12
0.129

What do you have for Oc1cccc(F)c1-c1nnc(N[C@@H]2CCCC[C@H]2O)c2cnccc12 ?
0.128

And C[C@@]1(O)CC[C@@H](Nc2nnc(-c3ccc(C(F)(F)F)cc3O)c3ccncc23)C1 ?
0.027

Cool, now Oc1cc(C(F)(F)F)ccc1-c1nnc(N[C@@H]2CCC[C@H]2O)c2ccccc12
0.162

What would you report for OC[C@@H](O)CNc1nnc(-c2ccc(OC(F)(F)F)cc2O)c2ccccc12 ?
0.201

And for Oc1cccc(F)c1-c1nnc(N[C@@H]2CC[C@H](O)C2)c2ccncc12 ?
6.15

Then Oc1cc(C(F)(F)F)ccc1-c1nnc(N[C@@H]2CC[C@H](O)C2)c2cnccc12 ?
0.017

###

Experimental Details: Solubility (Test F), McIlvaine buffer pH 6.5
Type: physicochemical
Stated Conditions: disodium hydrogenphosphate-citric acid (McIlvaine) buffer, 25 °C, pH 6.5, aqueous buffer, thermodynamic from solid, McIlvaine buffer pH 6.5, 25° C., 24 to 72 h; theoretical maximum 200 μM
# if value of solubility reaches 20 µg/mL, tag 1; if it stays below, tag 0

Does the compound C[C@]1(O)C[C@H](Nc2nnc(-c3ccc(C(F)(F)F)cc3O)c3ccncc23)C1 [Example 84] have recorded solubility that is 20 µg/mL or more?
1

Entry to check: CS(=O)(=O)c1ccc(-c2nnc(N[C@@H]3CC[C@@H](O)C3)c3ccccc23)c(O)c1 [Example 18]
1

Same for Oc1cc(C(F)(F)F)cc(F)c1-c1nnc(N[C@@H]2CCCC[C@H]2O)c2cnccc12 [Example 55]
0

Try the compound Oc1cc(C(F)(F)F)ccc1-c1nnc(N[C@H]2C[C@@H](O)C2)c2ccccc12 [Example 33]
0

Moving on to the next compound: Oc1cc(C(F)(F)F)ccc1-c1nnc(N[C@@H]2CCCC[C@@H]2O)c2ccccc12 [Example 23]
0

Another compound to look at: Oc1cc(C(F)(F)F)ccc1-c1nnc(N[C@H]2CC[C@H](O)C2)c2ccccc12 [Example 17]
1

Can you check OC[C@@H](O)CNc1nnc(-c2c(O)cc(C(F)(F)F)cc2F)c2ccccc12 [Example 7] next?
1

Record: C[C@]1(O)C[C@@H](Nc2nnc(-c3c(O)cccc3F)c3ccncc23)C1 [Example 64]
1

Now the same for Oc1cc(C(F)(F)F)ccc1-c1nnc(N[C@@H]2CC[C@@H](O)C2)c2ccccc12 [Example 16]
1

Lookup Oc1cc(C(F)(F)F)ccc1-c1nnc(N[C@H]2CCC[C@@H](O)C2)c2cnccc12 [Example 82]
0

Quick one: Oc1cc(C(F)(F)F)ccc1-c1nnc(N[C@@H]2CC[C@@H](O)C2)c2cnccc12 [Example 59]
1

Next compound up: OC[C@@H](O)CNc1nnc(-c2c(O)cc(F)cc2F)c2ccccc12 [Example 8]
0

Now consider C[C@@]1(O)CC[C@@H](Nc2nnc(-c3ccc(C(F)(F)F)cc3O)c3ccncc23)C1 [Example 38] and answer again.
1

Now try Oc1cc(Cl)cc(F)c1-c1nnc(N[C@@H]2CCC[C@H](O)C2)c2cnccc12 [Example 46] .
1

Then what about the compound Oc1cc(C(F)(F)F)ccc1-c1nnc(N[C@@H]2CCC[C@H](O)C2)c2ccncc12 [Example 43] ?
1

Same read-out for Oc1cc(C(F)(F)F)ccc1-c1nnc(N[C@@H]2CCC[C@@H]2O)c2ccccc12 [Example 19] ?
0

Param item: OC[C@@H](O)CNc1nnc(-c2c(O)cc(Cl)cc2F)c2ccccc12 [Example 9]
1

Please give the result for Oc1cc(C(F)(F)F)c(F)cc1-c1nnc(N[C@@H]2CCC[C@H](O)C2)c2cnccc12 [Example 53] too.
1

Same read-out for Oc1cc(C(F)(F)F)ccc1-c1nnc(N[C@H]2CCCC[C@@H]2O)c2ccccc12 [Example 26] ?
0
